Taken from PubChem BioAssay AID504332.

# Target under test: Histone-lysine N-methyltransferase EHMT2 (Homo sapiens) (UniProt Q96KQ7)
# Sequence (Q96KQ7 913-1193 limits assumed): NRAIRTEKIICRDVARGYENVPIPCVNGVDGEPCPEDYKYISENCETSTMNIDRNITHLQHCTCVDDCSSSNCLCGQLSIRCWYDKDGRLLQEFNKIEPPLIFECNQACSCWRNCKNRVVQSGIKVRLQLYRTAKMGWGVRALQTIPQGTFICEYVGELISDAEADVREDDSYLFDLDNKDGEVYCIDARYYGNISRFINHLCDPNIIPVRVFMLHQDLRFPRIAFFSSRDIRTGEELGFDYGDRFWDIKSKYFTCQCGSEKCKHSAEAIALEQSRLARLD
# Assay overview: qHTS Assay for Inhibitors of Histone Lysine Methyltransferase G9a; further: nearly all actives have a fitted effect of over 75% in size
# Details: G9a H3K9 monomethylation, AlphaScreen, 2 h; series mostly up to 59 µM
# Procedure: Methylated lysines, on the N-terminal tails of histone proteins serve as epigenetic markers to recruit factors that can then modify local chromatin structure to lead to functional consequences. […] Methylation of biotinylated-histone peptide is measured through specific antibody-based detection, in conjunction with streptavidin-coated donor and anti-IgG antibody-coated acceptor beads. […]
The campaign covered roughly 350,000 compounds. About 31,000 (8.9%) were called active. Not shown: some 15% with an inconclusive outcome. The call rests on the fitted dose curve; in most records, active means well fitted inhibition curve with a large enough effect; inconclusive means small, poorly fitted or top-dose-only effect; inactive means no such curve, though single readings can be large or run the other way. Shown is part of a subset that was picked to be rich in actives.
Use one of these outcomes when replying: active, inactive

# Compound, Classification
measured = [
    ("O=C1COc2ccc(S(=O)(=O)NCCc3ccc(Cl)cc3)cc2N1", "inactive"),
    ("Cc1cc(C(=O)COc2ccccc2[N+](=O)[O-])c(C)n1-c1cccc(S(=O)(=O)N2CCOCC2)c1", "inactive"),
    ("CC(C)N(C(=O)c1ccc(-c2ccccc2F)cc1)C(C)C", "inactive"),
    ("CC(Sc1sc(=S)sc1SC(C)C(=O)O)C(=O)O (centres undefined)", "active"),
    ("COc1cccc(N2CC(NC(=O)c3ccc4ccccc4c3)CC2=O)c1 (centres undefined)", "inactive"),
    ("O=C(NCc1ccccc1)C(=O)NCC(c1ccco1)S(=O)(=O)c1ccc(Cl)cc1 (centres undefined)", "inactive"),
    ("Cc1nnc(NC(=O)c2ccc3nccnc3c2)s1", "active"),
    ("CCn1c(=O)n(CC)c2cc(N3CCCC3)c(NC(=O)c3ccccc3Br)cc21", "active"),
]

Q. Answer briefly: the call reported for CC1CN(CCOc2ccccc2[N+](=O)[O-])CC(C)O1 (centres undefined) in this assay.
A. active

Q. Answer briefly: the call reported for Cc1nn(Cc2ccccc2)c(C)c1C(=O)NCCN1C(=O)S/C(=C\c2ccc(F)cc2)C1=O in this assay.
A. inactive

Q. Answer briefly: the call reported for CC1CN(CCCOc2ccccc2-c2ccccc2)CC(C)O1 (centres undefined) in this assay.
A. active

---

# Target under test: Histone-lysine N-methyltransferase EHMT2 (Homo sapiens)
# Assay overview: qHTS Assay for Inhibitors of Histone Lysine Methyltransferase G9a; further: nearly all actives have a fitted effect of over 75% in size
# Details: G9a H3K9 monomethylation, AlphaScreen, 2 h; series mostly up to 59 µM
Hit rate of the full screen: of about 350,000 compounds, about 31,000 (8.9%) were called active. Not shown: some 15% with an inconclusive outcome. Calls come from the whole dose curve; as a rule, active = well fitted inhibition curve with a large enough effect; inconclusive = small, poorly fitted or top-dose-only effect; inactive = no such curve, though single readings can be large or run the other way. The full list was thinned out, with actives kept by preference.
Use one of these outcomes when replying: active, inactive

Observe how each entry below is paired with its result.
# Molecule, Target under test, Classification
rows = [
    ("CCOC(=O)c1ccc(NC(=S)Nc2cc(C)cc(C)n2)cc1", "Histone-lysine N-methyltransferase EHMT2 (Homo sapiens)", "inactive"),
    ("Cc1ccc(C(=O)COC(=O)C(Cc2c[nH]c3ccccc23)NC(=O)c2ccc(Br)cc2)cc1 (stereo not given)", "Histone-lysine N-methyltransferase EHMT2 (Homo sapiens)", "inactive"),
    ("COC(=O)c1c(NC(=O)c2cc(=O)c3c(C)cc(C)cc3o2)sc2c1CCCC2", "Histone-lysine N-methyltransferase EHMT2 (Homo sapiens)", "inactive"),
    ("COc1ccc(C2=NN(C(=O)c3ccccc3C(=O)O)C(c3ccccc3O)C2)cc1 (stereo not given)", "Histone-lysine N-methyltransferase EHMT2 (Homo sapiens)", "inactive"),
    ("COc1cc(C(=O)Nc2ccc(OCc3cc(=O)n4ccc(C)cc4n3)cc2)cc(OC)c1OC", "Histone-lysine N-methyltransferase EHMT2 (Homo sapiens)", "inactive"),
]

Q. Answer briefly: the call reported for COc1cccc(NC(C)=[N+](C)CCNS(=O)(=O)c2ccc(Cl)cc2)c1 in this assay.
A. active

Q. Answer briefly: the call reported for CCn1c(=O)c2cc(C(=O)NCCc3ccc(Cl)cc3)sc2c2ccccc21 in this assay.
A. inactive

Q. Answer briefly: the call reported for O=C(CSc1ncn[nH]1)Nc1nsc(-c2ccccc2)n1 in this assay.
A. inactive

Q. Answer briefly: the call reported for CCN(C(=O)CSc1ncn[nH]1)c1cccc2ccccc12 in this assay.
A. active

Q. Answer briefly: the call reported for COc1ccc2oc(-c3ccc(C)c(NC(=O)c4sc5ccccc5c4Cl)c3)nc2c1 in this assay.
A. inactive

---

# Target under test: Histone-lysine N-methyltransferase EHMT2 (Homo sapiens) (UniProt Q96KQ7)
# Assay overview: qHTS Assay for Inhibitors of Histone Lysine Methyltransferase G9a; further: nearly all actives have a fitted effect of over 75% in size
# Details: G9a H3K9 monomethylation, AlphaScreen, 2 h; series mostly up to 59 µM
# Procedure: Methylated lysines, on the N-terminal tails of histone proteins serve as epigenetic markers to recruit factors that can then modify local chromatin structure to lead to functional consequences. […] Methylation of biotinylated-histone peptide is measured through specific antibody-based detection, in conjunction with streptavidin-coated donor and anti-IgG antibody-coated acceptor beads. […]
In all, about 350,000 compounds went through this assay and about 31,000 (8.9%) were called active. Roughly 15% stayed inconclusive and do not appear here. The call rests on the fitted dose curve; in most records, active means well fitted inhibition curve with a large enough effect; inconclusive means small, poorly fitted or top-dose-only effect; inactive means no such curve, though single readings can be large or run the other way. This is one part of a sample in which actives are shown more often than they occur.
Use one of these outcomes when replying: True = active, False = inactive

# Compound, Target under test, Classification
rows = [
    ("CC(=O)Nc1ccc(S(=O)(=O)N2CCC(C(=O)N[C@@H](Cc3ccccc3)C(=O)O)CC2)cc1", "Histone-lysine N-methyltransferase EHMT2 (Homo sapiens) (UniProt Q96KQ7)", "False"),
    ("Cc1cc(C)c2oc(C(=O)Nc3ccc(S(=O)(=O)N(C)c4ccccc4)cc3)cc(=O)c2c1", "Histone-lysine N-methyltransferase EHMT2 (Homo sapiens) (UniProt Q96KQ7)", "False"),
    ("Cc1cccc(C(=O)Nc2ccc(-c3nc4ccccc4s3)c(C)c2)c1", "Histone-lysine N-methyltransferase EHMT2 (Homo sapiens) (UniProt Q96KQ7)", "False"),
    ("CC(C)(C)c1ccc(C(=O)NCC(c2ccco2)S(=O)(=O)c2ccc(F)cc2)cc1 (configuration not stated)", "Histone-lysine N-methyltransferase EHMT2 (Homo sapiens) (UniProt Q96KQ7)", "False"),
    ("CCCN(CCC)S(=O)(=O)c1ccc(C(=O)Nc2sc3c(c2C(=O)OC)CCN(CC)C3)cc1", "Histone-lysine N-methyltransferase EHMT2 (Homo sapiens) (UniProt Q96KQ7)", "False"),
]

Q. Answer briefly: the call reported for COc1ccccc1NC(=S)N1CCN(C(c2ccccc2)c2ccccc2)CC1 in this assay.
A. True

Q. Answer briefly: the call reported for CC(C)OCC(O)CN1CCN(C(c2ccccc2)c2ccccc2)CC1 (configuration not stated) in this assay.
A. True

Q. Answer briefly: the call reported for O=C(C1=C(O)C(=O)N(c2ncccn2)C1c1cccs1)c1ccco1 (configuration not stated) in this assay.
A. True

Q. Answer briefly: the call reported for O=C(CCS(=O)(=O)c1cc(Br)cc2c1N(C(=O)C1CC1)CC2)Nc1ccc(Br)cc1F in this assay.
A. False

Q. Answer briefly: the call reported for CC(C)CC(=O)N1CCN(Cc2ccccc2Br)CC1 in this assay.
A. True

---

# Target under test: Histone-lysine N-methyltransferase EHMT2 (Homo sapiens)
# Assay overview: qHTS Assay for Inhibitors of Histone Lysine Methyltransferase G9a; further: nearly all actives have a fitted effect of over 75% in size
# Details: G9a H3K9 monomethylation, AlphaScreen, 2 h; series mostly up to 59 µM
Among all 350,000 compounds or so, about 31,000 (8.9%) were called active. Not shown: some 15% with an inconclusive outcome. Calls follow the shape of the dose curve; as a rule, active = well fitted inhibition curve with a large enough effect; inconclusive = small, poorly fitted or top-dose-only effect; inactive = no such curve, though single readings can be large or run the other way. The full list was thinned out, with actives kept by preference.
Use one of these outcomes when replying: Y = active, N = inactive

Observe how each entry below is paired with its result.
# Smiles structure, Target under test, Classification
data = [
    ("Cc1cccc(-n2ccnc2SCC(=O)Nc2cc(C(F)(F)F)ccc2Cl)c1", "Histone-lysine N-methyltransferase EHMT2 (Homo sapiens)", "Y"),
    ("O=C(c1cc2cc(F)ccc2[nH]1)N1CCN(c2ccc(F)cc2)CC1", "Histone-lysine N-methyltransferase EHMT2 (Homo sapiens)", "N"),
]

Q. Answer briefly: the call reported for O=[N+]([O-])c1cccc(S(=O)(=O)N2CCCCCC2)c1 in this assay.
A. N

Q. Answer briefly: the call reported for CCn1nc(NC(=O)c2ccco2)c2cc3ccc(C)cc3nc21 in this assay.
A. Y

Q. Answer briefly: the call reported for Cc1ccc(C)c(S(=O)(=O)N2CCN(CC(=O)Nc3ccc([N+](=O)[O-])cc3)CC2)c1 in this assay.
A. N

Q. Answer briefly: the call reported for COc1ccc(NC(=O)CSc2nccn2C2CCCC2)cc1OC in this assay.
A. N

Q. Answer briefly: the call reported for Cc1nc2ccn(Cc3cccs3)c(=O)c2cc1C(=O)NCc1ccc(Cl)cc1 in this assay.
A. N

Q. Answer briefly: the call reported for Cc1ccc(-n2nc3cc(Cl)c(NC(=O)c4ccco4)cc3n2)cc1 in this assay.
A. N

Q. Answer briefly: the call reported for O=C(CSc1nc(=O)[nH]c2c1CCCC2)Nc1cc(C(F)(F)F)ccc1Cl in this assay.
A. N

Q. Answer briefly: the call reported for Cc1ccc(Cn2c(NC(=O)c3ccco3)nc3ccccc32)cc1 in this assay.
A. N
